system: UO-31 renal; test: NCI tumour cell line growth inhibition, 48 h
Parameter: TGI. Scope: all listed entries.

SMILES_ENTRY | TGI
O=C1Oc2ccccc2C(=O)/C1=C/N1C(=O)CNC1=S | > 100 µM

Value lookup for TGI; key = CCN(c1ccccc1)[C@H]1C(=O)N(c2ccc([N+](=O)[O-])cc2)[C@H]1c1ccc(OC)cc1 > 100 µM

Try the molecule O=C1NC2(CCNCC2)Oc2ccccc21 > 100 µM

----------
Quick reference for GI50 among some compounds
system: SF-539 CNS; assay: NCI tumour cell line growth inhibition, 48 h

Please review the following examples before continuing.
COMPOUND | RECORDED_MEASUREMENT
COc1ccc2c(c1OC)O/C(=C\c1ncc([N+](=O)[O-])n1C)C2=O | 3.1 µM
Cc1ccc(C2CC(c3ccc(Nc4ccnc5cc(Cl)ccc45)cc3)=NN2C=O)cc1 (stereo not given) | > 100 µM
N#Cc1cc(S(=O)(=O)Nc2nc3cc(Cl)ccc3o2)c(SCc2ccccc2)cc1Cl | 13.5 µM
CCOC(=O)[C@@H]1CSC(CC)=C(C(=O)O)N1 | > 100 µM

// moving on: another record for GI50
Dear colleague, I am looking for the recorded GI50 of the following compound: CC(O)[C@H](NC(=O)N[C@@H](CC(N)=O)c1nc(N2CCNCC2)no1)C(=O)O (stereo not given in full) > 100 µM
